Target: NAMPT (human, recombinant, C-terminally His-tagged) (Homo sapiens)
Sequence (P43490 whole entry): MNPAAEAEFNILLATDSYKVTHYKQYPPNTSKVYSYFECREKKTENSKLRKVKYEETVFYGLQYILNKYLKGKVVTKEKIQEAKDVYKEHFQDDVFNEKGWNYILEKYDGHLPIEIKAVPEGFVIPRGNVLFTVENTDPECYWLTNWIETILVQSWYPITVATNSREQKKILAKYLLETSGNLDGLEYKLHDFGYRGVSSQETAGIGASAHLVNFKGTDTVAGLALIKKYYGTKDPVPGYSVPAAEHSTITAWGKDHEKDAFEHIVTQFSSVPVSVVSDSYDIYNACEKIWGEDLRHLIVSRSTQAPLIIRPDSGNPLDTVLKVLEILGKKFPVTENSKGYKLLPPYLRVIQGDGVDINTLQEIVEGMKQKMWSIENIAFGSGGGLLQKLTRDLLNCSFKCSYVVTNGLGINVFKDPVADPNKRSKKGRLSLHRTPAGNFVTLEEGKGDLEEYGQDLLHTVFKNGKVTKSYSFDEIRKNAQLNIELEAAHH
Experiment: Time-Resolved Fluorescence Resonance Energy Transfer (TR-FRET) Binding Assay of NAMPT
Settings: absence of substrates; 6.8 nM NAMPT, 200 nM probe, equilibrated 3 hours
Method: Determination of the utility of compounds having Formula (I) as binders to and inhibitors of NAMPT was performed using Time-Resolved Fluorescence Resonance Energy Transfer (TR-FRET) binding assays. Time-Resolved Fluorescence Resonance Energy Transfer (TR-FRET) Binding Assay of NAMPT […]
pIC50: −log10 of the molar value.
endpoint name: pIC50

compound	endpoint name	modifier sign	observed value
CC(C)CCN(C(=O)C(C)Oc1ccccc1)c1ncc(C(=O)NCCCn2ccnc2)s1 (stereo not shown)	pIC50	=	7.02
CC(C)CC(=O)N(CCc1ccc(F)cc1)c1ncc(C(=O)NCCCn2ccnc2)s1	pIC50	=	6.21
O=C(NCCCn1ccnc1)c1cnc(N(Cc2ccc(F)cc2)C(=O)CN2CCN(CCO)CC2)s1	pIC50	<	5.00
CC(=O)O[C@@H](C)C(=O)N(CCC(C)C)c1ncc(C(=O)NCCCn2ccnc2)s1	pIC50	=	5.84
